- Target: T1, UNK ZnF1-3 (human, UniProt Q9C0B0 31-174)
- T1 sequence: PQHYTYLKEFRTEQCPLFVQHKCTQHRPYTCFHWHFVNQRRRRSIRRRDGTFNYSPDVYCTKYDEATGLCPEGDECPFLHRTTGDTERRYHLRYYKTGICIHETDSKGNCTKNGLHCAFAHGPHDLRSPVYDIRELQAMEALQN
- Assay name: nsRBNS (natural sequence RNA bind-n-seq); RBNS binding buffer (assumed for nsRBNS): 25 mM Tris pH 7.5, 150 mM KCl, 3 mM MgCl2, 0.01% Triton X-100, 500 ug/ml BSA, 20 U/ml SUPERase-In, 4 C; UNK is unkempt and MSI1 is Musashi-1; names of the RNAs are library labels; protein concentration not given here; high values mean tight binding
Whole data set: some 24,000 sequences, median “enrichment r” near 0.99, cut for the highest 2% near 3.7. Many of the other results were omitted from the sample, so the highest values are more common in it than they were.
Measured parameter: binding signal (enrichment R)
Answers are plain numbers, in enrichment R.

* chr18:43482294:43482295:-_ENSMUSG00000024501_ENSMUST00000121805|mus_mus|FALSE|FALSE (ssRNA) RNA: GGGAGUUCUACAGUCCGACGAUCUGACAGAGUUUUGCCUAGCAUUUGAGAGGCCCUGGACUCAAUUGUCCAGCUCUACAAAAUGAAAUAAACAGAAAUUCCCCACCUCAAAAAAAAAAAACAACAACAACAACAACAAAAAACCAACAGAGGAUUGAGCAUCA | 3.06
* chr10:22825647:22825648:-_ENSG00000150867_ENST00000376573|hu_hu|FALSE|FALSE (ssRNA) RNA: GGGAGUUCUACAGUCCGACGAUCUCAUCAUUAUUAUCUUCAUUAUUCUGAAUACUGUCUCACAUCUUUCAACUCCAAAAAAAAAAAAAAAAAAAAAAAACUGAUCCACAGUUUGUUGUGUGAUGCCAACACGGUGCCUGACAUCAACAGAGGAUUGAGCAUCA | 5.07

Shifting focus to the binder that follows.
Query string: Please supply the value of reported binding signal for the item chr5:180275300:180275301:-_ENSG00000196670_ENST00000512132|hu_hu|FALSE|FALSE (ssRNA) RNA: GGGAGUUCUACAGUCCGACGAUCUCAUCAUCACUGCCCCCUCCCAAACCAAUUACAUCAAGUUUAUACUUAAAGACCACUAAUAUUAAAUAAAUUUAUAUUCCCUGAAACCUAUCCUCCCUGAAUUUGCCUGUUGGAGGCCCUCAACAGAGGAUUGAGCAUCA
Result string: 3.55
